SYSTEM_TESTED: MC5-R (Homo sapiens)
Sequence (P33032 whole entry): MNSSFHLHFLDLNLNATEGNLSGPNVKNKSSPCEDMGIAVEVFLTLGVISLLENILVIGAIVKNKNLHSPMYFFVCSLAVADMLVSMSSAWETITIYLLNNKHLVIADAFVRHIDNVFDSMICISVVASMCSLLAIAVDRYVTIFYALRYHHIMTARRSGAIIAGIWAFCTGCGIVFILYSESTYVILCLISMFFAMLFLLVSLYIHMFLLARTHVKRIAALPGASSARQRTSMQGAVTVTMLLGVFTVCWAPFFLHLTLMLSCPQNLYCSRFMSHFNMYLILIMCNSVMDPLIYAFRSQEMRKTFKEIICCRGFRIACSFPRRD
METHOD_NOTES: Competitive inhibition binding assay, 125I-NDP-α-MSH, MC5-R
Set-up: expressed in transfected cells
RUN_PARAMETERS: 1 μM compound; inhibition of 125I-NDP-α-MSH binding; mean of triplicates; results less than 0% reported as 0%
For each entry below, report its Inhibition at 1 μM MC5-R value.
Report as a plain number; the unit % is understood.

Please look up its Inhibition at 1 μM MC5-R: CC(=O)NCCCC[C@H]1C(=O)N(CCc2ccc3ccccc3c2)CCN1C(=O)[C@H](N)Cc1ccc(Cl)cc1Cl [Example 65] 0

Consider next the compound NCCCC[C@H]1C(=O)N(CCc2ccc3ccccc3c2)CCN1C(=O)[C@@H](Cc1ccc(Cl)cc1Cl)NCc1ccc(-c2ccccc2)cc1 [Example 39] in the same way. 9

Proceed to NCCCNC(=O)[C@@H]1C[C@@H](OCc2ccccc2)CN1C(=O)[C@@H](Cc1ccccc1)NC(=O)[C@H](N)C1Cc2ccccc2C1 [Example 175] 0

Would you kindly repeat that for NCCC[C@H]1CN(CCc2ccc3ccccc3c2)CCN1C(=O)[C@H](N)Cc1ccc(Cl)cc1Cl [Example 130] ? 39

Input NCCCC[C@H]1C(=O)N2C(CC[C@@H]2COc2ccccc2)N1C(=O)[C@@H](Cc1ccc(Cl)cc1)NC(=O)[C@@H]1Cc2ccccc2CN1 (stereo partly drawn) [Example 106] 25

Try the compound CCCCCCC(=O)N[C@@H](COCc1ccccc1)C(=O)N[C@H](Cc1ccc2ccccc2c1)C(=O)N1C[C@@H](Oc2ccc3ccccc3c2)C[C@H]1C(=O)NCCCN [Example 138] 0

Further, for NCCCC[C@H]1C(=O)N(CCc2ccc3ccccc3c2)CCN1C(=O)[C@@H](Cc1ccc(Cl)cc1Cl)NC(=O)[C@@H]1Cc2ccccc2CN1 [Example 23] ? 80

Can you handle NCCCC[C@H]1C(=O)N2C(CC[C@@H]2COc2ccc3ccccc3c2)N1C(=O)[C@@H](Cc1ccccc1Cl)NC(=O)[C@@H]1Cc2ccccc2N1 (stereo partly drawn) [Example 95] next? 14

Repeat for the following compound: NCCCC[C@H]1C(=O)N(CCc2ccc3ccccc3c2)CCN1C(=O)[C@@H](Cc1ccc(Cl)cc1Cl)NC(=O)c1ccc(Oc2ccccc2)cc1 [Example 37] 51

How about this compound: NCC[C@H]1C(=O)N(CCc2ccc3ccccc3c2)CCN1C(=O)[C@H](N)Cc1ccc(Cl)cc1Cl [Example 54] 23

Please do the same for NCCCC[C@H]1C(=O)N2C(CC[C@@H]2COc2ccc3ccccc3c2)N1C(=O)[C@@H](Cc1ccccc1Cl)NC(=O)[C@@H](N)COCc1ccccc1 (stereo partly drawn) [Example 82] as well. 38

Same again, this time with CCCCCCC(=O)N[C@@H](Cc1cnc[nH]1)C(=O)N[C@H](Cc1ccccc1)C(=O)N1C[C@H](OCc2ccccc2)C[C@H]1C(=O)NCCCNC(=N)N [Example 154] 1

###

SYSTEM_TESTED: MC1-R (B-16 mouse melanoma cells) (Mus musculus, UniProt Q01727)
Construct: B-16 mouse melanoma cells (containing MC1-R); endogenous in cells; host or cells: B-16 mouse melanoma cells
Sequence (Q01727 whole entry): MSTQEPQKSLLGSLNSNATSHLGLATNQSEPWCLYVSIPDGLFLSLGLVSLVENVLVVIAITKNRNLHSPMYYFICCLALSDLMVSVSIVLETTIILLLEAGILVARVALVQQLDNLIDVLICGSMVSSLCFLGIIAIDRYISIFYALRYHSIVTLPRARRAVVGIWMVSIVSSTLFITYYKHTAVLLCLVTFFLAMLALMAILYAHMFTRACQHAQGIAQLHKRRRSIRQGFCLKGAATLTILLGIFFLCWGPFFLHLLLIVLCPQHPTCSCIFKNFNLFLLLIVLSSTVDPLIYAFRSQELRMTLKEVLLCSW
METHOD_NOTES: Competitive inhibition binding assay, 125I-NDP-α-MSH, MC1-R
RUN_PARAMETERS: 1 μM compound; inhibition of 125I-NDP-α-MSH binding; mean of triplicates; results less than 0% reported as 0%
Non-standard residues stand in square brackets, D forms with d. Residues, ends and D or L forms follow the SMILES beside them. *: point of attachment. Hyp = O=C(O)[C@@H]1C[C@@H](O)CN1; NH(CH2)3NH2 = NCCCN*; Bn = c1ccc(C*)cc1
ENDPOINT_NAME: Inhibition at 1 μM MC1-R (%)
Please respond with the number in % and leave the unit unwritten.

Dear colleague, I am looking for the recorded Inhibition at 1 μM MC1-R of the following compound: NCCCNC(=O)[C@@H]1C[C@@H](OCc2ccccc2)CN1C(=O)[C@@H](Cc1ccccc1)NC(=O)[C@@H](N)Cc1ccc2ccccc2c1 0

Entry to check: N=C(N)NCCC[C@H]1C(=O)N2C(CC[C@@H]2COc2ccc3ccccc3c2)N1C(=O)[C@@H](Cc1ccccc1Cl)NC(=O)[C@@H]1C[C@@H](OCc2ccccc2)CN1 (stereo partly drawn) 54

Same read-out for NCCCC[C@H]1C(=O)N(CCc2ccc3ccccc3c2)CCN1C(=O)[C@@H](Cc1ccc(Cl)cc1Cl)NC(=O)CCc1ccccc1 ? 72

Input N=C(N)NCCC[C@H]1C(=O)N(CCc2ccc3ccccc3c2)CCN1C(=O)[C@H](N)Cc1ccc(Cl)cc1 34

Another: NCCCC[C@H]1C(=O)N(CCc2ccc3ccccc3c2)CCN1C(=O)[C@@H](Cc1ccc(Cl)cc1Cl)NC(=O)[C@@H]1Cc2ccccc2CN1 63

Likewise for NCCCC[C@H]1C(=O)N2C(CC[C@@H]2COc2ccc3ccccc3c2)N1C(=O)[C@@H](Cc1ccccc1Cl)NCc1ccccc1 (stereo partly drawn) ? 11

Do the same for CCCCCCC(=O)N[C@@H](COCc1ccccc1)C(=O)N[C@H](Cc1ccccc1Cl)C(=O)N1C2CC[C@H](COc3ccc4ccccc4c3)N2C(=O)[C@@H]1CCCCN (stereo partly drawn) please 71

Please answer likewise for N[C@H](Cc1ccc(Cl)cc1Cl)C(=O)N1CCN(CCc2ccc3ccccc3c2)C(=O)[C@@H]1CCCCNC(=O)c1cccnc1 4

Same read-out for N=C(N)NCCC[C@H]1C(=O)N(CCc2c[nH]c3ccccc23)CCN1C(=O)[C@H](N)Cc1ccc(Cl)cc1 ? 10

Can you handle Cc1ccc(CCN2CCN(C(=O)[C@H](N)Cc3ccc(Cl)cc3Cl)[C@@H](CCCNC(=N)N)C2=O)cc1 next? 11

Follow-up item: CCCC(CCC)C(=O)N[C@@H](Cc1cnc[nH]1)C(=O)N[C@H](Cc1ccccc1)C(=O)N1C[C@H](OCc2ccccc2)C[C@H]1C(=O)NCCCN 73

Check N[C@@H](COCc1ccccc1)C(=O)N[C@H](Cc1ccc(Cl)cc1Cl)C(=O)N1CCN(CCc2ccc3ccccc3c2)C(=O)[C@@H]1CCCNS(N)(=O)=O too. 0

Please do the same for NCCCC[C@H]1C(=O)N(CCc2ccc3ccccc3c2)CCN1C(=O)[C@@H](Cc1ccc(Cl)cc1Cl)NC(=O)[C@@H](N)COCc1ccccc1 as well. 40

What about this compound? CC(=O)NCCCC1C(=O)N(CCc2ccc3ccccc3c2)CCN1C(=O)C(Cc1ccc(Cl)cc1Cl)NC(=O)C(N)COCc1ccccc1 (stereo not drawn) 13

Item: CC(=O)NC(Cc1cnc[nH]1)C(=O)NC(Cc1ccccc1)C(=O)N1CC(OCc2ccccc2)CC1C(=O)NCCCN (stereo not drawn) 85

Same question, NCCCC[C@H]1C(=O)N2C(CC[C@@H]2COc2ccc3ccccc3c2)N1C(=O)[C@@H](Cc1ccccc1Cl)NC(=O)[C@@H]1C[C@H](Oc2ccc3ccccc3c2)CN1 (stereo partly drawn) this time 21

Again, but for NCC[C@H]1C(=O)N(CCc2ccc3ccccc3c2)CCN1C(=O)[C@H](N)Cc1ccc(Cl)cc1Cl 28

What would you report for NCCCC[C@H]1C(=O)N(CCc2ccc3ccccc3c2)CCN1C(=O)[C@@H](Cc1ccc(Cl)cc1Cl)NC(=O)c1ccc(Oc2ccccc2)cc1 ? 35

Then what about the compound NCCCC[C@H]1C(=O)N2C(CC[C@@H]2COc2ccc3ccccc3c2)N1C(=O)[C@@H](Cc1ccccc1Cl)NC(=O)[C@@H]1Cc2ccccc2CN1 (stereo partly drawn) ? 42

Another: NCCCC[C@H]1C(=O)N(CCOc2ccc3ccccc3c2)CCN1C(=O)[C@@H](Cc1ccc(Cl)cc1)NC(=O)[C@@H](N)COCc1ccccc1 64

Continue with NCCCNC(=O)[C@@H]1C[C@@H](OCc2ccccc2)CN1C(=O)[C@@H](Cc1ccccc1)NC(=O)C1CCC(CN)CC1 (stereo partly drawn) 18

Continue with CCCCCCC(=O)N[C@@H](COCc1ccccc1)C(=O)N[C@H](Cc1ccc2ccccc2c1)C(=O)N1C[C@@H](Oc2ccc3ccccc3c2)C[C@H]1C(=O)NCCCN 39

Same question for C[C@H](N)C(=O)N[C@@H](Cc1cnc[nH]1)C(=O)N[C@H](Cc1ccccc1)C(=O)N1C[C@H](OCc2ccccc2)C[C@H]1C(=O)NCCCN [Example 135] (H-AH[dF][Hyp](Bn)-{NH(CH2)3NH2}) please. 93

Moving on to [2H]NC(Cc1cnc[nH]1)C(=O)NC(Cc1ccccc1)C(=O)N1C(CCCNC(=N)N)C(=O)N2C(COc3ccc4ccccc4c3)CCC21 (stereo not drawn) 99
